Every entry's value here was drawn from patent US10227357B2.

target: c-kit kinase (Homo sapiens); construct: The c-kit (or kinase domain thereof) is an active kinase in AlphaScreen; poly-Histidine tag (in-house protein only) (cleaved yes); host or cells: E. coli BL21(DE3)RIL, co-expressed with PTP1B; assay: c-Kit biochemical assay, AlphaScreen, 10 μM ATP; settings: c-kit biochemical inhibitory activity; read-out: Biochemical activity (IC50 μM) Kit
Sequence (P10721 26-976): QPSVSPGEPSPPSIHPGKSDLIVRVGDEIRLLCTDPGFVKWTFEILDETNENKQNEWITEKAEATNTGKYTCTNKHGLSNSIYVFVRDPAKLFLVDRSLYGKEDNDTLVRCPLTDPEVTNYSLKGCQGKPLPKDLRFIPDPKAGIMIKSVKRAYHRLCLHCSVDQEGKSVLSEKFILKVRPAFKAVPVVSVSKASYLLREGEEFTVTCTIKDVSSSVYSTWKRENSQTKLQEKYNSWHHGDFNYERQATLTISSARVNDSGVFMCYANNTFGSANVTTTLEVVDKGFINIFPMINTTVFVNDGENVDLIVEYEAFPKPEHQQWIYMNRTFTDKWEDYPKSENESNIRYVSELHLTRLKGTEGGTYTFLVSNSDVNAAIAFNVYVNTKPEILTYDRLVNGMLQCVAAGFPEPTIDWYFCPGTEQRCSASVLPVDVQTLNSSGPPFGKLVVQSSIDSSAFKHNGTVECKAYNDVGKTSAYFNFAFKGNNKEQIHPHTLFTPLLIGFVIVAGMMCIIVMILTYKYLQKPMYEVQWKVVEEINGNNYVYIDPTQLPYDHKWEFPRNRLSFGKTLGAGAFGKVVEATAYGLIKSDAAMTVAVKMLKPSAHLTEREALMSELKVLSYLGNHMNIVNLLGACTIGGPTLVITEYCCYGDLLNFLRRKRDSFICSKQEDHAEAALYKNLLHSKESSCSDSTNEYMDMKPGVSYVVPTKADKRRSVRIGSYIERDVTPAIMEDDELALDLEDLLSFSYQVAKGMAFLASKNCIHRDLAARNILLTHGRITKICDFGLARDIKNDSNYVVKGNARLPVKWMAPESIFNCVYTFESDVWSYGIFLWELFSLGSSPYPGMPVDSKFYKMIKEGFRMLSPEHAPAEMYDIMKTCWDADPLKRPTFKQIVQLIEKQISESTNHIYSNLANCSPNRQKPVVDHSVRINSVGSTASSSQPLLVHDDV
Property: IC50

cpd_smiles=Cc1cc2c(-c3ccc(NS(=O)(=O)c4cc5ccccc5s4)cc3)ncnc2[nH]1 experimental_system="c-kit kinase (Homo sapiens)" property=IC50 recorded_measurement="1 to 10 µM"
cpd_smiles=C[C@H]1CN(c2ncnc3[nH]c(-c4ccncc4)cc23)CCN1 experimental_system="c-kit kinase (Homo sapiens)" property=IC50 recorded_measurement="10 to 200 µM"
cpd_smiles=Cc1cc2c(-c3ccc(NS(=O)(=O)c4ccc(C)c(F)c4)c(F)c3)ncnc2[nH]1 experimental_system="c-kit kinase (Homo sapiens)" property=IC50 recorded_measurement="1 to 10 µM"

Find the measured IC50: item `NC(=O)c1cccc(-c2cc3c(N4CCN(C(=O)NCc5ccc(F)cc5)CC4)ncnc3[nH]2)c1` , target or system c-kit kinase (Homo sapiens). 1 to 10 µM

And then `O=C(Nc1cccnc1)NC1CCN(c2ncnc3[nH]ccc23)CC1` , what is it? 10 to 200 µM

And then `COCCOc1cc2ncnc(-c3ccc(NS(=O)(=O)c4ccc(Cl)cc4)cc3F)c2cc1OCCOC` , what is it? 0.0001 to 1 µM

And then `[2H]C([2H])([2H])S(=O)(=O)Nc1ccc(-c2ncnc3[nH]c(-c4ccc(F)cc4)cc23)c(F)c1` , what is it? 0.0001 to 1 µM
